The values you see were collected from patent US20260001914A1.

- testTarget: KRAS-G12D protein (Homo sapiens, UniProt P01116, G12D)
- Sequence (P01116 1-188 isoform P01116-2 G12D): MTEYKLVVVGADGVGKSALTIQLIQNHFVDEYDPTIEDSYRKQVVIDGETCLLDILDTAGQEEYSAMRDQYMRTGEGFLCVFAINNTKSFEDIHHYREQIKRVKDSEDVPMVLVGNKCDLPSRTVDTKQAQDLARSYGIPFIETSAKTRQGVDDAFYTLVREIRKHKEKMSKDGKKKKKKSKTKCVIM
- protocolDetails: SOS-mediated nucleotide exchange assay (BODIPY-GDP / Tb-streptavidin TR-FRET)
- Type: biochemical
*1 amine or outer side, *2 acyl side, *3 side chain or, on linkers, in order; H or OH if unused. Where a SMILES comes first, the peptide text is derived from it. Bridges are numbered along the chain shown (N, C = ends). [ ]: non-standard residue; d: D form. Ala(pyrimidin-5-yl) = N[C@@H](Cc1cncnc1)C(=O)O; X57 = Cn1ccc(C[C@H](N[*:1])C(=O)[*:2])n1; Phe(3-Me) = Cc1cccc(C[C@H](N)C(=O)O)c1; Phe(4-F) = N[C@@H](Cc1ccc(F)cc1)C(=O)O; Phe(2-F) = N[C@@H](Cc1ccccc1F)C(=O)O; NMe3Pal = CN[C@@H](Cc1cccnc1)C(=O)O; X1 = O=C(C12CC(CN[*:1])(C1)C2)[*:2]; Ala(cPr) = N[C@@H](CC1CC1)C(=O)O; NMeF = CN[C@@H](Cc1ccccc1)C(=O)O; PhLac = O=C(O)[C@@H](O)Cc1ccccc1; 3Pal = N[C@@H](Cc1cccnc1)C(=O)O; Ahp(2) = CCCCC[C@H](N)C(=O)O; Cba = N[C@@H](CC1CCC1)C(=O)O; hLeu = CC(C)CC[C@H](N)C(=O)O; NMeA = CN[C@@H](C)C(=O)O; Nle = CCCC[C@H](N)C(=O)O; Pra = C#CC[C@H](N)C(=O)O
Reported pEC50 values for the following molecules.
// field semantics: pEC50 = negative decimal log of concentration (mol/L)

In the examples that follow, each entry is paired with its recorded pEC50.
INSERT INTO results (molecule, quantitativereadout) VALUES
  ('CCCC[C@@H]1NC(=O)[C@H](Cc2cccnc2)NC(=O)[C@H](C)N(C)C(=O)[C@H](Cc2cccc(C)c2)NC(=O)C23CC(CNC(=O)[C@H](Cc4cccnc4)N(C)C(=O)[C@H](CCCC)NC(=O)[C@H](Cc4ccccc4F)NC1=O)(C2)C3 [compound 166] (cyclo([3Pal][Nle][Phe(2-F)][Nle][NMe3Pal][X1][Phe(3-Me)][NMeA]))', 7.65),
  ('CCCCC[C@@H]1NC(=O)[C@H](Cc2ccc(O)cc2)NC(=O)[C@H](CC(C)C)NC(=O)[C@H](Cc2ccc(O)cc2)NC(=O)[C@H](CCCNC(=N)N)NC(=O)[C@H](Cc2ccccc2)NC(=O)CSC[C@@H](C(=O)NCC(=O)N[C@@H](CCCCN)C(=O)N[C@@H](CCCCN)C(N)=O)NC(=O)[C@H](Cc2ccccc2)N(C)C1=O [compound 56, cyclo(F-R-Y-L-Y-Ahp-NMeF-C2-ClAc)] ({CH2CO}-FRYLY[Ahp(2)][NMeF]CGKK-NH2; thioether N-8)', 6.27),
  ('CCCC[C@@H]1NC(=O)[C@H](Cc2cccnc2)NC(=O)[C@H](C)N(C)C(=O)[C@H](Cc2ccc(F)cc2)NC(=O)C23CC(CNC(=O)[C@H](Cc4cccnc4)N(C)C(=O)[C@H](CCCC)NC(=O)[C@H](Cc4ccccc4F)NC1=O)(C2)C3 [compound 167] (cyclo([3Pal][Nle][Phe(2-F)][Nle][NMe3Pal][X1][Phe(4-F)][NMeA]))', 7.00),
  ('CCCCC[C@@H]1NC(=O)[C@H](Cc2ccc(OC)cc2)NC(=O)[C@H](CC2CCC2)NC(=O)[C@H](Cc2cccnc2)NC(=O)[C@H](CCCNC(=N)N)NC(=O)[C@H](Cc2ccccc2)OC(=O)C23CC(CNC(=O)[C@H](Cc4ccccc4)N(C)C1=O)(C2)C3 [compound 211] (cyclo([PhLac]R[3Pal][Cba]Y(Me)[Ahp(2)][NMeF][X1]))', 7.97),
  ('C#CC[C@@H]1NC(=O)[C@H](CC2CC2)NC(=O)[C@H](Cc2cncnc2)NC(=O)[C@H](C)N(C)C(=O)[C@H](Cc2ccccc2)OC(=O)C23CC(CNC(=O)[C@H](Cc4ccccc4)N(C)C(=O)[C@H](CCC(C)C)NC1=O)(C2)C3 [compound 286] (cyclo([Ala(cPr)][Pra][hLeu][NMeF][X1][PhLac][NMeA][Ala(pyrimidin-5-yl)]))', 5.70);

Continue with the next molecule.
The molecule listed as CCCC[C@@H]1NC(=O)[C@H](Cc2ccn(C)n2)NC(=O)[C@H](C)N(C)C(=O)[C@H](Cc2ccccc2)OC(=O)C23CC(CNC(=O)[C@H](Cc4ccccc4)N(C)C(=O)[C@H](CCCC)NC(=O)[C@H](Cc4ccccc4F)NC1=O)(C2)C3 [compound 319] (cyclo([NMeA][X57][Nle][Phe(2-F)][Nle][NMeF][X1][PhLac])) shows pEC50 equal to 5.29
